Values were extracted from patent US20210032299A1.

target entity: T1, human glucose-dependent insulinotropic polypeptide (GIP) receptor (human, UniProt P48546 22-466)
T1 construct: whole, on cells; Assayed as crude membranes of stably transfected CHO cells; also called hGIPR; human GIP receptor
T1 sequence (looked up): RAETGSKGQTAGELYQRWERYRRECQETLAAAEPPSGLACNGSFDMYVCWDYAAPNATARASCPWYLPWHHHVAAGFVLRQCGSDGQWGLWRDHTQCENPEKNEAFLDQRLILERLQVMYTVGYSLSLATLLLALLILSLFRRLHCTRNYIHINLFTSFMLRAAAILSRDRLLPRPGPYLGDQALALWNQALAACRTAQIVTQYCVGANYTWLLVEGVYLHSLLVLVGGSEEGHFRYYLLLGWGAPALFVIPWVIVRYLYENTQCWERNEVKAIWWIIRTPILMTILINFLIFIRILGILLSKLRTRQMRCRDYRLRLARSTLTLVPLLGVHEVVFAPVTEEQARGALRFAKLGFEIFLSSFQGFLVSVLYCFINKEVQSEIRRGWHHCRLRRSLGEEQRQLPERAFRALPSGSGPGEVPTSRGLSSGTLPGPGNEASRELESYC
protocol text: SPA, displacement of [125I]-GIP from hGIPR membranes, 0.1% bacitracin
Protocol: The binding buffer contains 25 mM HEPES, pH 7.4, 2.5 mM CaCl₂, 1 mM MgCl₂, 0.1% (w/v) bacitracin, 0.003% (w/v) TWEEN®-20, and Roche Complete™ Protease Inhibitors without EDTA. […] Plates are sealed and mixed on a plate shaker (setting 6) for 1 minute and read with a PerkinElmer Trilux MicroBeta® scintillation counter after 2.5 to 12 hours of incubation/settling time at room temperature. […]
measured endpoint: Ki

binder="YXEGTFISDYSILLDKKAQXDFVNWLLAQGPSSGAPPPS (D-Ala2; K17((2-[2-(2-Amino-ethoxy)-ethoxy]-acetyl)2-(γ-Glu)-CO-(CH2)18-CO2H); Aib20; C-terminal amide) [Example 1]" measured_endpoint=Ki data_value="0.0667 nM"
binder="YXEGTXISDYSIXLDXKHQXDFVEXLLETGPSSGAPPPS (Aib2; Iva6; αMeL13; Orn16; K17((2-[2-(2-Amino-ethoxy)-ethoxy]-acetyl)2-(γ-Glu)-CO-(CH2)18-CO2H); Aib20; 4-Pal25; C-terminal amide) [Example 77]" measured_endpoint=Ki data_value="0.0841 nM"
binder="YXEGTFISDYSILLDKKAQXEFVQWLLAGGPSSGAPPPS (D-Ala2; K17((2-[2-(2-Amino-ethoxy)-ethoxy]-acetyl)2-(γ-Glu)-CO-(CH2)16-CO2H); Aib20; C-terminal amide) [Example 27]" measured_endpoint=Ki data_value="0.0354 nM"
